Attribution: PubChem BioAssay (NCI)

Listed below: growth values for each entry.
# System: SW-620 colon
# ASSAY EXPLANATION: NCI-60 one-dose screen, 48 h (100 = growth as untreated, 0 = no growth, -100 = all killed)
# CONDITION CONTEXT: 10 µM unless noted
This is part of a sample that, as a whole, favours compounds with a hit. Of some 83,000 tested, about 20% had one in any assay. Active and inactive are the calls of the source. How the source made its calls: active means growth percent below 10; inactive means the rest.
ASSAY READOUT: growth

Cc1ncc(C(=O)Nc2ccc(CN3CCN(C)CC3)c(C(F)(F)F)c2)cc1C#Cc1c(N)ncc2ccccc12 : -60.6% (active)
OCCN1CCN(CC/C=C2/c3ccccc3Sc3ccc(C(F)(F)F)cc32)CC1 : 83.5% (inactive)
CCCNC(=O)Oc1ccc(/C(=C(/CC)Cc2ccccc2)c2ccc(OCCN(CC)CC)cc2)cc1 : 70.9% (inactive)
CC1Cc2cc(F)ccc2-n2cccc21 (configuration not stated) : 96.1% (inactive)
COc1cc(CNC(=O)CCCC/C=C/C(C)C)ccc1OCc1nnc(Nc2ccccc2F)o1 : 98.9% (inactive)
COc1cc2oc(-c3ccc(NC(=O)c4ccccc4)cc3)cc(=O)c2c(OC)c1OC : 93.2% (inactive)
O=C(NCCCl)Nc1nccnc1OCc1ccc(F)cc1 : 103% (inactive)
COc1ccc(-c2cn3ccnc3c(-c3ccc4ncn(C5CCCCC5)c4c3)n2)cc1 : 22.2% (inactive)
COc1ccc(C(=O)CN2C(=O)NC(c3ccccc3)(c3ccccc3)C2=O)cc1 : 96.8% (inactive)
NCCCOc1cc2ccccc2cc1C(=O)Nc1ccc(Cl)cc1OC(=O)c1cc2ccccc2cc1OCCCN : -94.9% (active)
Cc1cc2cn3c4ccc(O)cc4[nH]c(=O)c3c2cc1C : -100% (active)
COC(=O)[C@H](Cc1cn(C)cn1)NC(=O)[C@H](Cc1c[nH]c2ccccc12)NC(=O)Nc1cc(C(F)(F)F)cc(C(F)(F)F)c1 : -38.1% [100 µM] (active)
COc1cc(C(=O)Nc2ccc(N(C)C)cc2)cc(OC)c1OC : 85.9% (inactive)
O=C(NC1CCN(Cc2ccccc2)CC1)c1cc(-c2cccnc2)nc2ccc(Cl)cc12 : 27% (inactive)
CC[N+](C)(C)N : 105% (inactive)
Oc1ccccc1\C=N/N=C/C=C/c1ccccc1 : 106% (inactive)
COc1ccc(NC(=O)/C=C(C)/C=C/C=C(C)/C=C/C2=C(C)CCCC2(C)C)cc1 : 69.3% (inactive)
Clc1ccc(N/N=C/c2ccccn2)nc1 : 36.7% (inactive)
O=C(Nn1cnc2ccccc21)N1CCCC1 : 109% (inactive)
N=C(N)N=Nc1ccc(NN=C(N)N)cc1 : 38.3% (inactive)
O=C(NC(=S)NNC(=S)NNc1ccccc1)c1ccccc1 : 24.4% (inactive)
Nc1nc2cc(O)ccc2n2cc3c(F)cccc3c12 : 17.5% (inactive)

* * *

# System: ACHN renal
# ASSAY EXPLANATION: NCI-60 one-dose screen, 48 h
# CONDITION CONTEXT: 10 µM unless noted
# Protocol: Growth inhibition of the ACHN human tumor cell line is measured as a screen for anti-cancer activity. Cells are grown in 96 well plates and exposed to the test compound for 48 hours. Compounds are tested at a single concentration, which is 10^-5 M for most compounds. The reported endpoint is percent growth (GI% or GIPRCNT), where numbers from 0 - 100% represent growth inhibition, and numbers from -100% - 0 represent cell death. For example, a value of 40 represents 60% growth inhibition. […]
The panel holds about 83,000 compounds, 20% with a hit somewhere; the sample as a whole holds those more often. Activity calls are given as the source filed them. The calls were made as follows: active = growth percent below 10; inactive = the rest.
Labels: TRUE = active, FALSE = inactive

CCOC(=O)c1c(C)oc2ncnc(Nc3ccc(NC(=O)Nc4ccc(CC)cc4)cc3)c12 : FALSE
Cc1cc(CSc2ccc(Cl)cc2)ccc1N : FALSE
O=CN/N=C/c1ccc(Cl)c([N+](=O)[O-])c1 : FALSE
C[n+]1c2ccccc2c(Nc2ccc(NS(=O)(=O)CCCCN=C(N)N)cc2)c2ccc(N)cc21 : FALSE
C=CCSc1nnc(COc2ccc3c(C)c(Cc4ccccc4)c(=O)oc3c2C)o1 : FALSE
COc1cccc2c1n([O-])c1cccc(OC)c1[n+]2=O : FALSE
O=C(Nc1ccc(Cl)cn1)C1(c2ccccc2)CCCCC1 : FALSE
Clc1ccc(N/N=C/c2ccccn2)nc1 : TRUE
CC(=O)Nc1nc(C)c(C(=O)N/N=C/N2CCCCC2)s1 : FALSE
C#CCCCCCCC[C@@H]1OC(=O)[C@H]([C@@H](C)CC)NC(=O)[C@@H]([C@@H](C)CC)NC(=O)CC(=O)[C@@H]1C : FALSE
CCNc1nnc(COc2ccc(CNC(=O)CCCC/C=C/C(C)C)cc2OC)o1 : FALSE
COc1cc2c(/C=C3\C(=O)Nc4ccc(Br)cc43)c(Cl)n(C)c2cc1C : FALSE
O=Nc1c(-c2c(O)[nH]c3cc(Br)ccc23)[nH]c2ccccc12 : TRUE
O=C(Nc1ccc(-n2cc(-c3ccncc3)c(-c3ccc(Cl)c(O)c3)n2)cc1)c1ccc(Cl)c(C(F)(F)F)c1 : TRUE
COC(=O)[C@H](Cc1cn(C)cn1)NC(=O)[C@H](CC(=O)OCc1ccccc1)NC(=O)Nc1cc(C(F)(F)F)cc(C(F)(F)F)c1 : TRUE
CC(=O)/C(=C/c1ccc(-c2ccccc2)cc1)C(=O)c1ccccc1 : FALSE
Nc1nc2c(c3cnccc13)C(c1cccc(Cl)c1)Cc1cnccc1-2 (stereo not drawn) : FALSE
NNC(=O)CNc1ccc2ccccc2c1 : FALSE
CCC1(CC)C(OC)NC(Br)=C(C#N)C1(C#N)C(N)=O (stereo not drawn) : FALSE
N#CC1=C(N2CCOCC2)NC2c3ccccc3Sc3ccccc3N2C1=N (stereo not drawn) : FALSE
O=C(Nc1ccc(-n2cc(-c3ccncc3)c(-c3ccc(Cl)c(O)c3)n2)cc1)c1cc(C(F)(F)F)cc(C(F)(F)F)c1 : FALSE
CCOC1=C(Cl)C(=O)C(OCC)=C(Cl)C1=O : FALSE
CN1CCN(Cc2ccc(NC(=O)c3ccc(C#Cc4c(N)ncc5ccc(F)cc45)cc3)cc2C(F)(F)F)CC1 : TRUE
CC(C)(C)OC(=O)N1C/C(=C\c2ccccc2)C(=O)/C(=C/c2ccccc2)C1 : FALSE
COc1ccc2sc(-n3nc4nc5n(c(=O)c4c3N)-c3ccccc3Sc3ccccc3-5)nc2c1 : FALSE
N#CCCCCCCCCCCC#N : FALSE
O=C1C(=O)c2ccccc2C(O)=C1CCCc1ccc(C2CCCC2)cc1 : FALSE
Cc1nc(NC(=O)NC2CCCCC2)sc1C(=O)NN : FALSE
COc1cc2ncnc(-n3ncc4cc(NC(=O)Nc5ccc(Cl)c(C)c5)ccc43)c2cc1OC : FALSE
CC(=O)CC(=O)OC/C=C(/C)CCC=C(C)C : FALSE
O=Nc1ccc(O)c2ccccc12 : FALSE
CCS(=O)(=O)OCCO[C@H]1Cc2cc3ccc(=O)oc3cc2OC1(C)C : FALSE
CCCNC(=O)Oc1ccc(/C(=C(/CC)Cc2ccccc2)c2ccc(OCCN(CC)CC)cc2)cc1 : FALSE
O=C(/C=C/c1ccc(Cl)cc1)c1ccc(Cl)cc1 : FALSE
COc1ccc(C(=O)N2N=C(c3ccc(Br)cc3)CC2c2cn(-c3ccccc3)nc2-c2ccccc2)cc1 (stereo not drawn) : FALSE
O=C(/C(Br)=C/c1ccccc1)c1ccccc1 : TRUE
c1cc[c]([Bi]([c]2ccccc2)[c]2ccccc2)cc1 : FALSE
Nc1ccc(S(=O)(=O)Nc2cc(F)cc(F)c2)cc1 : FALSE
COCC(=O)NNc1[nH]c(-c2ccc(OC)cc2)cc1C#N : FALSE
CCCCCCCCCc1cc[n+](CC(=O)c2ccc([N+](=O)[O-])cc2)cc1 : FALSE
CCCCCCCCCCCCOC(=N)N(C)C : FALSE
COc1ccc(-c2cn3ccnc3c(-c3ccc4ncn(C5CCCCC5)c4c3)n2)cc1 : FALSE
COc1cc(/C(=C2/O[C@@H]([C@H]3COC(C)(C)O3)[C@H]3OC(C)(C)O[C@@H]23)c2ccc3c(c2)OCO3)cc(OC)c1OC : FALSE
